Source: patent US20240336638A1

# PROTOCOL_SUMMARY: Pharmacokinetics in SD rats after single IV and PO administration, plasma
# Format: in vivo
# ASSAY_CONTEXT: Sprague-Dawley (SD); rat plasma; PO 6 mg/kg
Binary classification by Cmax, with 30000 ng/mL as an inclusive lower bound for met; all other cases are not met.

Illustrative cases are given below, each with its answer.
{"columns": ["COMPOUND", "CLASS_NAME"],
 "data": [
  ["O=C(O)[C@@H]1C[C@H]1c1ccc(Cn2cnc(F)c2)cc1F", "not met"],
  ["O=C(O)[C@@H]1C[C@H]1c1ccc(Cn2cnc(F)c2)c(Cl)c1", "met"],
  ["O=C(O)/C=C/c1ccc(Cn2ccnc2)cc1 [Ozagrel, reference compound]", "not met"],
  ["O=C(O)[C@@H]1C[C@H]1c1ccc(Cn2ccnc2)cc1", "not met"],
  ["O=C(O)[C@@H]1C[C@H]1c1ccc(Cn2cnc(Cl)c2)c(Cl)c1", "met"]
]}

Here is the next item to consider.
# bool: Cmax of `O=C(O)[C@@H]1C[C@H]1c1ccc(Cn2ccnc2)c(F)c1` >= 30000 ng/mL not met

* * *

Listing: MRT inf of selected compounds
# PROTOCOL_SUMMARY: Blood-brain barrier (BBB) study in SD rats after single IV and PO administration, brain
# Type: in vivo
# ASSAY_CONTEXT: Sprague-Dawley (SD); rat brain; IV 1 mg/kg; read-out: MRT(0−∞)
Provide the reading as a plain figure in h.

Worked cases, MRT inf given:
{"columns": ["COMPOUND", "MRT inf / h"],
 "data": [
  ["O=C(O)[C@@H]1C[C@H]1c1ccc(Cn2cnc(F)c2)c(Cl)c1", 11.5],
  ["O=C(O)/C=C/c1ccc(Cn2ccnc2)cc1 [Ozagrel, reference compound]", 0.17],
  ["O=C(O)[C@@H]1C[C@H]1c1ccc(Cn2ccnc2)c(F)c1", 3.05],
  ["O=C(O)[C@@H]1C[C@H]1c1ccc(Cn2ccnc2)cc1", 0.56],
  ["O=C(O)[C@@H]1C[C@H]1c1ccc(Cn2cnc(F)c2)cc1F", 4.7]
]}

// next item, MRT inf requested
Give the reported MRT inf for this compound. `O=C(O)[C@@H]1C[C@H]1c1ccc(Cn2cnc(Cl)c2)c(Cl)c1` 27.4

* * *

# PROTOCOL_SUMMARY: Blood-brain barrier (BBB) study in SD rats after single IV and PO administration, brain
# Type: in vivo
# ASSAY_CONTEXT: Sprague-Dawley (SD); rat brain; PO 6 mg/kg; read-out: MRT(0−t)
Let's look at some compounds and their measured MRT last.
Your answer should be a plain number; it is taken to be in h.

Reference set, count: 5
{"columns": ["COMPOUND", "MRT last (h)"],
 "data": [
  ["O=C(O)/C=C/c1ccc(Cn2ccnc2)cc1 [Ozagrel, reference compound]", 0.59],
  ["O=C(O)[C@@H]1C[C@H]1c1ccc(Cn2ccnc2)c(F)c1", 2.56],
  ["O=C(O)[C@@H]1C[C@H]1c1ccc(Cn2ccnc2)cc1", 1.22],
  ["O=C(O)[C@@H]1C[C@H]1c1ccc(Cn2cnc(F)c2)cc1F", 4.53],
  ["O=C(O)[C@@H]1C[C@H]1c1ccc(Cn2cnc(F)c2)c(Cl)c1", 7.84]
]}

Identify the reported MRT last for the following entry. `O=C(O)[C@@H]1C[C@H]1c1ccc(Cn2cnc(Cl)c2)c(Cl)c1` 9.94

* * *

# PROTOCOL_SUMMARY: Pharmacokinetics in SD rats after single IV and PO administration, plasma
# Type: in vivo
# ASSAY_CONTEXT: Sprague-Dawley (SD), rat, plasma, iv, 1 mg/kg, rat plasma; IV 1 mg/kg; read-out: Vz
QUANTITY: Vd (L/kg)
Write the value in L/kg as a bare number.

{"columns": ["MOLECULE", "Vd [L/kg]"],
 "data": [
  ["O=C(O)[C@@H]1C[C@H]1c1ccc(Cn2cnc(Cl)c2)c(Cl)c1", 0.22]
]}

Hello, please tell me recorded Vd for this one: `O=C(O)[C@@H]1C[C@H]1c1ccc(Cn2ccnc2)c(F)c1` 0.38

Give me measured Vd, please, for this molecule: `O=C(O)[C@@H]1C[C@H]1c1ccc(Cn2cnc(F)c2)cc1F` 0.27

Assign Vd to the following record: `O=C(O)[C@@H]1C[C@H]1c1ccc(Cn2cnc(F)c2)c(Cl)c1` 0.21

Recall and state the measured Vd for `O=C(O)[C@@H]1C[C@H]1c1ccc(Cn2ccnc2)cc1` . 0.2

Report Vd for O=C(O)/C=C/c1ccc(Cn2ccnc2)cc1 [Ozagrel, reference compound] 0.74

* * *

# System: MCAO/R rats
# PROTOCOL_SUMMARY: Therapeutic administration (i.v.) in middle cerebral artery occlusion/reperfusion (MCAO/R) rats
# Assay type: in vivo, rat
# ASSAY_CONTEXT: low dose 3 mg/kg i.v., once a day for 3 days; modified Bederson score; mean ± SD, n = 8
QUANTITY: Neurological function score

{"columns": ["STRUCTURE_STRING", "Neurological function score"],
 "data": [
  ["O=C(O)[C@@H]1C[C@H]1c1ccc(Cn2ccnc2)cc1", "2.00 ± 0.53"],
  ["O=C(O)[C@@H]1C[C@H]1c1ccc(Cn2cnc(F)c2)cc1F", "2.25 ± 0.71"],
  ["O=C(O)[C@@H]1C[C@H]1c1ccc(Cn2ccnc2)c(F)c1", "2.38 ± 0.74"]
]}

Could you please provide reported Neurological function score for `O=C(O)[C@@H]1C[C@H]1c1ccc(Cn2cnc(F)c2)c(Cl)c1` ? Thanks! 2.25 ± 0.46

Using the record for `O=C(O)[C@@H]1C[C@H]1c1ccc(Cn2cnc(Cl)c2)cc1F` , state its measured Neurological function score. 2.00 ± 0.53

Fill in reported Neurological function score for this entry: `O=C(O)[C@@H]1C[C@H]1c1ccc(Cn2cnc(Cl)c2)c(Cl)c1` 2.25 ± 0.46

* * *

# AUC(0-t) per entry
# PROTOCOL_SUMMARY: Pharmacokinetics in SD rats after single IV and PO administration, plasma
# Assay type: in vivo
# ASSAY_CONTEXT: Sprague-Dawley (SD); rat plasma; IV 1 mg/kg
Be sure to follow the number with its unit.

{"columns": ["MOLECULE", "QUANTITY", "RESULT"],
 "data": [
  ["O=C(O)[C@@H]1C[C@H]1c1ccc(Cn2ccnc2)c(F)c1", "AUC(0-t)", "3430 ng·h/mL"],
  ["O=C(O)[C@@H]1C[C@H]1c1ccc(Cn2cnc(F)c2)cc1F", "AUC(0-t)", "17500 ng·h/mL"],
  ["O=C(O)[C@@H]1C[C@H]1c1ccc(Cn2ccnc2)cc1", "AUC(0-t)", "3250 ng·h/mL"]
]}

Look up and state reported AUC(0-t) for O=C(O)/C=C/c1ccc(Cn2ccnc2)cc1 [Ozagrel, reference compound] 510 ng·h/mL

Return AUC(0-t) for the following molecule: `O=C(O)[C@@H]1C[C@H]1c1ccc(Cn2cnc(F)c2)c(Cl)c1` 55900 ng·h/mL

Consider the molecule `O=C(O)[C@@H]1C[C@H]1c1ccc(Cn2cnc(Cl)c2)c(Cl)c1` and give its recorded AUC(0-t). 86400 ng·h/mL

* * *

# PROTOCOL_SUMMARY: Blood-brain barrier (BBB) study in SD rats after single IV and PO administration, brain
# Format: in vivo
# ASSAY_CONTEXT: rat brain; IV 1 mg/kg
Some compounds, each annotated with its measured AUC(0−t).
Respond with the bare value in ng·h/g.

For the compound O=C(O)/C=C/c1ccc(Cn2ccnc2)cc1 [Ozagrel, reference compound] , give its reported AUC(0−t). 4.96

Fill in reported AUC(0−t) for this entry: O=C(O)[C@@H]1C[C@H]1c1ccc(Cn2ccnc2)cc1 [Compound 19] 16.44

# return recorded AUC(0−t) for input O=C(O)[C@@H]1C[C@H]1c1ccc(Cn2cnc(F)c2)c(Cl)c1 [Compound 18] 633.23

Look up and report measured AUC(0−t) for this entry: O=C(O)[C@@H]1C[C@H]1c1ccc(Cn2cnc(Cl)c2)c(Cl)c1 [Compound 11] 855.25

Input O=C(O)[C@@H]1C[C@H]1c1ccc(Cn2ccnc2)c(F)c1 [Compound 15] , output reported AUC(0−t). 33.91

For the compound O=C(O)[C@@H]1C[C@H]1c1ccc(Cn2cnc(F)c2)cc1F [Compound 17] , give its reported AUC(0−t). 169.74

* * *

Documented MRT inf across a set of molecules
# PROTOCOL_SUMMARY: Blood-brain barrier (BBB) study in SD rats after single IV and PO administration, brain
# Assay type: in vivo
# ASSAY_CONTEXT: Sprague-Dawley (SD); rat brain; PO 6 mg/kg; read-out: MRT(0−∞)
A number alone suffices; assume h.

{"columns": ["MOLECULE", "MRT inf / h"],
 "data": [
  ["O=C(O)[C@@H]1C[C@H]1c1ccc(Cn2cnc(F)c2)cc1F", 4.6]
]}

Report MRT inf, nothing else, for this molecule: `O=C(O)[C@@H]1C[C@H]1c1ccc(Cn2cnc(F)c2)c(Cl)c1` 11.7

State its MRT inf for this molecule: O=C(O)/C=C/c1ccc(Cn2ccnc2)cc1 [Ozagrel, reference compound] 0.68

Answer with the recorded MRT inf for the molecule listed here: `O=C(O)[C@@H]1C[C@H]1c1ccc(Cn2ccnc2)cc1` 1.32

Give me measured MRT inf, please, for this molecule: `O=C(O)[C@@H]1C[C@H]1c1ccc(Cn2ccnc2)c(F)c1` 2.91

Query MRT inf for `O=C(O)[C@@H]1C[C@H]1c1ccc(Cn2cnc(Cl)c2)c(Cl)c1` 28.5
